Biological target: complement C5 (full length) (Homo sapiens, UniProt P01031)
Sequence (P01031 whole entry): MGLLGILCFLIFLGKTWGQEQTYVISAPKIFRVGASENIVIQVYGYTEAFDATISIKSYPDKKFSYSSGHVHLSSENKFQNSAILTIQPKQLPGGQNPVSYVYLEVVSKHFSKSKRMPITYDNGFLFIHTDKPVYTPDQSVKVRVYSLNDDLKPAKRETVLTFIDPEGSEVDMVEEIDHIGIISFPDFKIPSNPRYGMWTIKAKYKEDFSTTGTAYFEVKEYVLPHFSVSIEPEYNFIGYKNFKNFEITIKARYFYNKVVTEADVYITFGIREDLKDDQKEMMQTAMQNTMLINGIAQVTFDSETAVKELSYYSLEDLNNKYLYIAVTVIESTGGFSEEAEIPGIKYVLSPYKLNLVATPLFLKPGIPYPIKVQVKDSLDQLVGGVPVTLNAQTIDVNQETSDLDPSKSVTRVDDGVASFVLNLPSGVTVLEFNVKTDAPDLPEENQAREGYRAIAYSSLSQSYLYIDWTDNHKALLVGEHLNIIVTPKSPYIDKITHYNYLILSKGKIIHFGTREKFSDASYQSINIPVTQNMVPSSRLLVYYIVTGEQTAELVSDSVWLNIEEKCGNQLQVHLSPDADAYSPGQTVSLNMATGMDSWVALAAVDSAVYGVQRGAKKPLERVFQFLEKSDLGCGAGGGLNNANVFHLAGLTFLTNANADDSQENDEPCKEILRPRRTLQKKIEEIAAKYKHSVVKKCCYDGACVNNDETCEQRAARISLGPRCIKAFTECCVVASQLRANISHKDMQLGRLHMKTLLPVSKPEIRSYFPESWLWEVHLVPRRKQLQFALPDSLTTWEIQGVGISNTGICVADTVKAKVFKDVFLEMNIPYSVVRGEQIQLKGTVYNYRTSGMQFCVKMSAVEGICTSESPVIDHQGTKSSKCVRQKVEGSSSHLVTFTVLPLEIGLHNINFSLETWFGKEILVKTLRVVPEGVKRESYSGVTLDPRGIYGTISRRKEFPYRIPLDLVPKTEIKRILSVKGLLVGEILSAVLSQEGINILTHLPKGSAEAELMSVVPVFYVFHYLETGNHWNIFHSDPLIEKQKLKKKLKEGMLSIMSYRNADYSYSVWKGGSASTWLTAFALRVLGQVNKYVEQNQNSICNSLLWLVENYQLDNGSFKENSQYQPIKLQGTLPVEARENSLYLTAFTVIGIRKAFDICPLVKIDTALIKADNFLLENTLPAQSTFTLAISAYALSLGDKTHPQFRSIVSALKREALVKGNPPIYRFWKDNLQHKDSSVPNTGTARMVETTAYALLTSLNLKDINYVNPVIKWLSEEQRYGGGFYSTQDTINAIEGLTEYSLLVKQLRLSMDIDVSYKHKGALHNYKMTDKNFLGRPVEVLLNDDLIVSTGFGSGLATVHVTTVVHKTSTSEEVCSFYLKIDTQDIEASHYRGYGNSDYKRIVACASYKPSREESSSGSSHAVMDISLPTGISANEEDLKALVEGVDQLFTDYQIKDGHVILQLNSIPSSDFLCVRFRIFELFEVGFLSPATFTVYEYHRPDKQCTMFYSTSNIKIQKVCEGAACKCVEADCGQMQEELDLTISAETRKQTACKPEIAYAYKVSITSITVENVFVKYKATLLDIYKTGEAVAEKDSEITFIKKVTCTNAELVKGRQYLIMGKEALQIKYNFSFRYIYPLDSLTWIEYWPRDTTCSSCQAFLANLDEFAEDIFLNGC
Experiment: filter; dot blot
Conditions: tags: Quidel / Complement Technologies A120.14 / Advanced Research Technologies
ENDPOINT_NAME: pKd
Give bare numbers, as −log10 of the molar value.

Request: Would you mind telling me what pKd value was observed for CCUUGGUUUGGCACAGGCAUACAUACGCAGGG (mixed, dRmY: A,G deoxy; C,U 2'-OMe) [ARC874] ?
Response: 6.00
